assay: Plasma concentration in CD1 mouse at 5 mg/kg, po measured at 24 hrs; type: ADME, organism-based; set-up: dose 5 mg/kg, route oral
Measured attribute: concentration at 24 h

Input line: Report concentration at 24 h for COc1cc(-c2ccccc2)nc2cc(-c3nc([C@H]4C[C@@](C)(O)C4)n4ccnc(N)c34)ccc12 please.
Output line: < 30 nM

* * *

assay: Cmax in CD1 mouse at 5 mg/kg, po; type: ADME, organism-based; design: dose 5 mg/kg, route oral; conditions: in vivo
Measured attribute: Cmax (µM)
Dear colleague, please return just the value in µM, with no unit written.

Input line: Report Cmax for COc1cc(-c2ccccc2)nc2cc(-c3nc([C@H]4C[C@@](C)(O)C4)n4ccnc(N)c34)ccc12 please.
Output line: 3.2

* * *

assay: Volume of distribution at steady state in CD1 mouse at 5 mg/kg, iv; type: ADME, organism-based; parameters: dose 5 mg/kg, route intravenous; settings: in vivo, read-out: Vdss
Measured attribute: Vd (L/kg)
Dear colleague, please return just the value in L/kg, with no unit written.

Input line: Report Vd for CCOc1cc(-c2ccccc2)nc2cc(-c3nc([C@H]4C[C@@](C)(O)C4)n4ccnc(N)c34)ccc12 please.
Output line: 1.5

* * *

test: Plasma concentration in CD1 mouse at 2.5 mg/kg, po measured at 8 hrs; assay type: ADME, organism-based; design: dose 2.5 mg/kg, route oral
Measured attribute: concentration at 8 h

Input line: Report concentration at 8 h for CCOc1cc(-c2ccccc2)nc2cc(-c3nc([C@H]4C[C@@](C)(O)C4)n4ccnc(N)c34)ccc12 please.
Output line: 320 nM

* * *

test: Clearance in CD1 mouse at 0.5 mg/kg, iv; assay type: ADME, organism-based; set-up: dose 0.5 mg/kg, route intravenous; conditions: in vivo
Measured attribute: clearance (mL/min/kg)
Dear colleague, please return just the value in mL/min/kg, with no unit written.

Input line: Report clearance for COc1cc(-c2ccccc2)nc2cc(-c3nc([C@H]4C[C@@](C)(O)C4)n4ccnc(N)c34)ccc12 please.
Output line: 17

* * *

test: Oral bioavailability in CD1 mouse at 5 mg/kg; format: ADME, organism-based; settings: plasma
Measured attribute: bioavailability (%)
Dear colleague, please return just the value in %, with no unit written.

Input line: Report bioavailability for COc1cc(-c2ccccc2)nc2cc(-c3nc([C@H]4C[C@@](C)(O)C4)n4ccnc(N)c34)ccc12 please.
Output line: 74

* * *

assay: Volume of distribution at steady state in CD1 mouse at 0.5 mg/kg, iv; assay type: ADME, organism-based; design: dose 0.5 mg/kg, route intravenous; conditions: in vivo, read-out: Vdss
Measured attribute: Vd (L/kg)
Dear colleague, please return just the value in L/kg, with no unit written.

Input line: Report Vd for COc1cc(-c2ccccc2)nc2cc(-c3nc([C@H]4C[C@@](C)(O)C4)n4ccnc(N)c34)ccc12 please.
Output line: 2.4
